Parameter nuclei count: see the listing below.
- Procedure summary: endothelial E-selectin expression blockers – imaging, HUVEC, immunofluorescence, MLSMR starter and 10KST1 sets, primary screen (AID 487);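 also: 100% = median nuclei count of all wells on the same plate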
- Experimental context: HUVEC TNFalpha-induced E-selectin immunofluorescence imaging, at 2 µM; measured here: cell number, toxicity
Please reply with the bare figure in % and do not write the unit itself.

// `O=c1c2ccc(-c3nnc4n3-c3ccccc3SC4)cc2nc2n1CCCCC2` : nuclei count value = 116

// `Nc1sccc1C(=O)c1ccccc1` : nuclei count value = 129

// O=C(COC(=O)CCc1c[nH]c2ccccc12)NC1CCS(=O)(=O)C1 (stereo unspecified) : nuclei count value = 113

// COc1ccc(C(NC(=O)c2ccco2)c2ccc(OC)c(OC)c2)cc1 (stereo unspecified) : nuclei count value = 114

// `CCOC(=O)c1c(-c2ccc(C)o2)csc1NC(=O)CN1CCN(CC)CC1` : nuclei count value = 106

// `O=C(Nc1ccc(S(=O)(=O)N2CCc3ccccc32)cc1)c1ccc2c(c1)OCO2` : nuclei count value = 83.2

// `Cc1ccc(Nc2cc(C)nc3ncnn23)c(Cl)c1` : nuclei count value = 104

// O=C1CC(Sc2nnc(-c3ccccc3)o2)C(=O)N1c1ccccc1 (stereo unspecified) : nuclei count value = 91.1

// `CN1CC(=O)N(CC(=O)NCCc2ccc(F)cc2)c2ccccc2C1=O` : nuclei count value = 90.4

// `CCc1nnc(NC(=O)CSc2nc(-c3ccc(OC)cc3)ns2)s1` : nuclei count value = 98.7

Could you now look at the following compound, please?
// `COCc1cc(C)nc(Nc2ccc(C)cc2C)c1C#N` : nuclei count value = 120
